# System: SW480
# Assay notes: drug sensitivity score (DSS, integrated dose-response area); higher = more sensitive (stronger viability reduction); extreme values may be limits of the assay
# Measurement setup: shRNA: SND1 shRNA1 (SND1 silenced)
Record form. Attribute: drug sensitivity score. Fill in for each entry.

Solved cases (6 shown):
Nc1ncn([C@@H]2O[C@H](CO)[C@@H](O)[C@H]2O)c(=O)n1; 3.7 DSS
CCNc1nc(Nc2cc(F)c(C(=O)N3CCOCC3)cc2OC)ncc1C(F)(F)F; 0 DSS
NCC(=O)Nc1ccc(-n2nc(C(F)(F)F)cc2-c2ccc3c(ccc4ccccc43)c2)cc1; 10 DSS
Cc1c(C(=O)Nc2ccc(N3C[C@@H](C)O[C@@H](C)C3)nc2)cccc1-c1ccc(OC(F)(F)F)cc1; 2.9 DSS
Cc1cccc(-c2nn3c(c2-c2ccnc4ccc(C(N)=O)cc24)CCC3)n1; 0 DSS
O=C(O)CCCCC(CCSCc1ccccc1)SCc1ccccc1 (stereo unspecified); 0 DSS

Count: 8. Required value per item: drug sensitivity score.
1. COc1ccc(C2=N[C@@H](c3ccc(Cl)cc3)[C@@H](c3ccc(Cl)cc3)N2C(=O)N2CCNC(=O)C2)c(OC(C)C)c1
2. CC(C)[C@H]1C(=O)N[C@@H](CCCNC(=N)N)C(=O)NCC(=O)N[C@@H](CC(=O)O)C(=O)N[C@H](Cc2ccccc2)C(=O)N1C [Cilengitide]
3. CC[C@H](Nc1ncnc2[nH]cnc12)c1nc2cccc(F)c2c(=O)n1-c1ccccc1
4. CC(C)N(CCCNC(=O)Nc1ccc(C(C)(C)C)cc1)C[C@H]1O[C@@H](n2cc(Br)c3c(N)ncnc32)[C@H](O)[C@@H]1O
5. O=C(Cc1ccc(-c2ccc(OCCN3CCOCC3)cc2)cn1)NCc1ccccc1
6. CCCC(CCC)C(=O)O
7. O=S(=O)(c1cccc2cnccc12)N1CCCNCC1
8. O=C(O)c1ccc2c(c1)nc(Nc1cccc(Cl)c1)c1ccncc12

["0 DSS", "0 DSS", "2.3 DSS", "4.6 DSS", "15 DSS", "0 DSS", "3.1 DSS", "2.1 DSS"]

Count: 3. Required value per item: drug sensitivity score.
1. CC(C)N(C[C@H]1O[C@@H](n2cnc3c(N)ncnc32)[C@H](O)[C@@H]1O)[C@H]1C[C@@H](CCc2nc3cc(C(C)(C)C)ccc3[nH]2)C1
2. OC[C@H]1O[C@@H](n2cnc3c2N=CNC[C@H]3O)C[C@@H]1O
3. Cc1ccccc1C(C(=O)NC1CCCCC1)N(C(=O)Cn1ccnc1C)c1cccc(F)c1 (stereo unspecified)

1. 0 DSS
2. 1.6 DSS
3. 0 DSS

Count: 3. Required value per item: drug sensitivity score.
1. CCCCCOC(=O)Nc1nc(=O)n([C@@H]2O[C@H](C)[C@@H](O)[C@H]2O)cc1F
2. O=C(NC1CCNCC1)c1n[nH]cc1NC(=O)c1c(Cl)cccc1Cl
3. O=P1(N(CCCl)CCCl)NCCCO1 (stereo unspecified) [Cyclophosphamide]

1. 0 DSS
2. 10.7 DSS
3. 0 DSS

* * *

Record form. Attribute: drug sensitivity score. Fill in for each entry.
# Tested on: SW480
# Assay notes: drug sensitivity score (DSS, integrated dose-response area); higher = more sensitive (stronger viability reduction); extreme values may be limits of the assay
# Measurement setup: shRNA: SND1 shRNA1 (SND1 silenced)
One number for each entry, in DSS.

Count: 7. Required value per item: drug sensitivity score.
1. C[C@]12C=CC(=O)C=C1CC[C@@H]1[C@@H]2[C@@H](O)C[C@@]2(C)[C@H]1CC[C@]2(O)C(=O)CO
2. CCCCc1nc2cc(/C=C/C(=O)NO)ccc2n1CCN(CC)CC
3. CO[C@@]12[C@H](COC(N)=O)C3=C(C(=O)C(C)=C(N)C3=O)N1C[C@@H]1N[C@@H]12
4. CCC(C)n1ncn(-c2ccc(N3CCN(c4ccc(OCC5COC(Cn6cncn6)(c6ccc(Cl)cc6Cl)O5)cc4)CC3)cc2)c1=O (configuration not stated)
5. Cc1ccc(-c2cc(C(F)(F)F)nn2-c2ccc(S(N)(=O)=O)cc2)cc1
6. C[C@]12C=CC(=O)C=C1CC[C@@H]1[C@@H]2C(=O)C[C@@]2(C)[C@H]1CC[C@]2(O)C(=O)CO
7. COc1cc(N2CCC(N3CCN(C)CC3)CC2)ccc1Nc1ncnc(Nc2ccccc2S(=O)(=O)C(C)C)n1

1. 0
2. 21.1
3. 2.7
4. 4.2
5. 0
6. 0.5
7. 4.6
